The measurements presented in this section are drawn from patent US20260216348A1.

- System: R848-induced IL-6 secretion in human peripheral blood mononuclear cells (PBMCs)
- PROCEDURE_TEXT: Inhibition of R848-induced IL-6 secretion in human PBMCs (IL-6 ELISA)
- Type: cell-based
- RUN_PARAMETERS: PBMC, R848 2.5 μg/mL, 20 h pre-incubation, 24 h stimulation
Just a reminder that ties go to false (0): only IC50 strictly below 7 nM counts as true (1).

-- ask Take the compound CN(C)c1cc2nn([C@H]3CC[C@H](CN4CCC(c5nc6cc(N7CCC(=O)NC7=O)ccc6o5)CC4)CC3)cc2cc1NC(=O)c1cnn2cccnc12 and say whether its IC50 is less than 7 nM.
-- reply false (0)

-- ask Consider CN(C)c1cc2nn([C@H]3CC[C@H](CN4CC[C@H](n5cc6cc(C7CCC(=O)NC7=O)c(F)cc6n5)[C@H](F)C4)CC3)cc2cc1NC(=O)c1cnn2cccnc12 (stereo partly drawn) . Does its IC50 lie strictly below 7 nM?
-- reply false (0)

-- ask Report whether reported IC50 is lower than 7 nM (strictly) for CN(C)c1cc2nn([C@H]3CC[C@H](CN4C[C@@H](n5cc6cc(N7CCC(=O)NC7=O)c(F)cc6n5)[C@@H](F)C4)CC3)cc2cc1NC(=O)c1cnn2cccnc12
-- reply false (0)

-- ask Quick check: does CN(C)c1cc2nn([C@H]3CC[C@H](CN4CC[C@@H](c5nc6cc(N7CCC(=O)NC7=O)ccc6o5)C4)CC3)cc2cc1NC(=O)c1cnn2cccnc12 have IC50 under 7 nM?
-- reply true (1)

-- ask Hello, I'm reviewing records and need to know if IC50 of CN(C)c1cc2nn([C@H]3CC[C@H](CN4C[C@@H](n5cc6c(F)cc(N7CCC(=O)NC7=O)cc6n5)[C@@H](F)C4)CC3)cc2cc1NC(=O)c1cnn2cccnc12 is below 7 nM. Could you check?
-- reply false (0)

-- ask Lab note: IC50 threshold 7 nM. Does this compound come in strictly under it? CN(C)c1cc2nn([C@H]3CC[C@H](CN4CC[C@@H](n5cc6ccc(N7CCC(=O)NC7=O)cc6n5)C4)CC3)cc2cc1NC(=O)c1cnn2cccnc12
-- reply false (0)

-- ask IC50 strictly < 7 nM for this compound? CN(C)c1cc2nn([C@H]3CC[C@H](CN4CC[C@H](n5cc6ccc(N7CCC(=O)NC7=O)cc6n5)C4)CC3)cc2cc1NC(=O)c1cnn2cccnc12
-- reply true (1)

-- ask Bench note: check whether CN(C)c1cc2nn(C3CCC(CN4C[C@@H](F)[C@@H](n5cc6cc(N7CCC(=O)NC7=O)ccc6n5)C4)CC3)cc2cc1NC(=O)c1cnn2cccnc12 (stereo partly drawn) shows IC50 below 7 nM
-- reply true (1)
